This listing pairs compounds with measured melting point.

Consider the reported melting point for these compounds:
CC(c1cccc(O)c1)N1CC(C)(C)C(Oc2ccc(C#N)c(C(F)(F)F)c2)C1=O (single isomer, unassigned; (+))    185.1 to 185.8 °C
C[C@@H](c1ccc(F)cc1)N1CC(C)(C)[C@@H](Oc2ccc(C#N)c(C(F)(F)F)c2)C1=O (racemic) [Example 70]    82 to 83 °C
CSc1ccc(CN2CC(C)(C)C(Oc3ccc(C#N)c(C(F)(F)F)c3)C2=O)cc1 (racemic)    44.1 to 44.8 °C

// next item, melting point requested
Query: // melting point lookup, key: C[C@@H](c1ccc(F)cc1)N1CC(C)(C)[C@@H](Oc2ccc(C#N)c(C(F)(F)F)c2)C1=O (mixture of isomers) [Example 71]
Response: 114 to 115 °C

====

System: male Syrian hamsters
Test: Animal Model for Inhibition of Sebum Production (hamster ear, HPLC of sebum lipids)
Type: in vivo, Syrian hamster
Conditions: cholesterol ester vs vehicle control; topical 1%, twice daily, five days a week, 4 weeks
Description: Luderschmidt et al describes an animal model for testing whether compounds are capable of modulating sebum secretion. Arch. Derm. Res. 258, 185-191 (1977). This model uses male Syrian hamsters, whose ears contain sebaceous glands. Based on binding data and cellular assay data, selected compounds were chosen for screening in this model. Those compounds included the products of Examples 1, 20, 81, 82, and 109. Testing for sebum inhibition was carried out in the following manner. […]
// 0 strictly below 70% in % CE reduction; 1 otherwise

Some solved cases for reference:
CCCN1CC(C)(C)[C@@H](Oc2ccc(C#N)c(C(F)(F)F)c2)C1=O [Example 4A]    1
CC1(C)CN(S(C)(=O)=O)C(=O)C1Oc1ccc(C#N)c(C(F)(F)F)c1 (centres unmarked) [Example 81]    0

Note: attention shifts to another entry.
Query: Given the entry CC(c1ccccc1)N1CC(C)(C)C(Oc2ccc(C#N)cc2Cl)C1=O (centres unmarked) [Example 109] , answer whether its % CE reduction meets or surpasses 70%.
Response: 0

====

biological target: androgen receptor (Homo sapiens); assay: AR Antagonist Cell Assay (MDA-MB453-MMTV clone 54-19, luciferase reporter); format: cell-based; conditions: inhibition of induction by DHT (final concentration at 100 μM), 17 hr; compound 0.32-1000 nM; mean of multiple tests; read-out: IC50
Sequence (P10275 whole entry Q868H, form open): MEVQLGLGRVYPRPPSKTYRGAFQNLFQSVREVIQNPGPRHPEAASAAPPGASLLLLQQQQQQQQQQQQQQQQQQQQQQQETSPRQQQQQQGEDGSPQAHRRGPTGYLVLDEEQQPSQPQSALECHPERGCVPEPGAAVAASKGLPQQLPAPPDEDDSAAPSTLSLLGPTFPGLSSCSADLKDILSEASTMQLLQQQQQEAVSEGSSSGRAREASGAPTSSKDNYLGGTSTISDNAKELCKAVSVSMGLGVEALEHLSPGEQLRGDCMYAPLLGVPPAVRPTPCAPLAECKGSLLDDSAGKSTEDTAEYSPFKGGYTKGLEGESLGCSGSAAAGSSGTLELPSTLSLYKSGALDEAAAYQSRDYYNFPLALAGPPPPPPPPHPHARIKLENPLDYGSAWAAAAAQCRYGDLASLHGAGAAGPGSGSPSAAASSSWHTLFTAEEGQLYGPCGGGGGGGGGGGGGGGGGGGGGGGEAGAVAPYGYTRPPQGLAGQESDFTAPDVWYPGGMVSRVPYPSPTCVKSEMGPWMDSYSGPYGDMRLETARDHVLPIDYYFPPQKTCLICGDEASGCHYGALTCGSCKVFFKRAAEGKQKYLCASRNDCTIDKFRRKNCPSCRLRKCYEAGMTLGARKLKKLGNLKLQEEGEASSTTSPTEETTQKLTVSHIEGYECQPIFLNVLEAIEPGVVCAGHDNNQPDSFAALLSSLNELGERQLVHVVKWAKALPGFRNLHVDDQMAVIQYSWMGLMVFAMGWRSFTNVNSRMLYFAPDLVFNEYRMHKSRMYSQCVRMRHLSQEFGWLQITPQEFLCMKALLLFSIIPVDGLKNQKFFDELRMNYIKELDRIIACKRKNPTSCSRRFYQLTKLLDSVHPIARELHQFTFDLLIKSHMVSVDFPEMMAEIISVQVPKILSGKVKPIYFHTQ
Label key: t means IC50 under 0.4 µM; f means IC50 of 0.4 µM or more.

Some solved cases for reference:
CC1(C)CN(Cc2nnc(-c3ccc(O)cc3O)o2)C(=O)C1Oc1ccc(C#N)c(C(F)(F)F)c1 (stereo not shown)    t
CC1(C)CN(C(=O)c2cccc(C#N)c2)C(=O)C1Oc1ccc(C#N)c(C(F)(F)F)c1 (stereo not shown)    f
CCS(=O)(=O)N1CC(C)(C)C(Oc2ccc(C#N)c(C(F)(F)F)c2)C1=O (stereo not shown)    t
CC1(C)CN(Cc2cccc3nsnc23)C(=O)C1Oc1ccc(C#N)c(C(F)(F)F)c1 (stereo not shown)    t
CC1(C)CN(Cc2ccc(-n3cccn3)cc2)C(=O)C1Oc1ccc(C#N)c(C(F)(F)F)c1 (stereo not shown)    f
COc1cccc(-c2nnc(CN3CC(C)(C)C(Oc4ccc(C#N)c(C(F)(F)F)c4)C3=O)o2)c1 (stereo not shown)    t
C[C@@H](c1ccccc1)N1CC(C)(C)C(Oc2ccc(C#N)c(C(F)(F)F)c2)C1=O (mixture of isomers)    t
COC(=O)c1ccc(CN2CC(C)(C)C(Oc3ccc(C#N)c(C(F)(F)F)c3)C2=O)o1 (stereo not shown)    t

Query: Input CC1(C)CN(Cc2cccc(OC(F)F)c2)C(=O)C1Oc1ccc(C#N)c(C(F)(F)F)c1 (stereo not shown) ; condition: IC50 strictly below 0.4 µM. Does it hold?
Response: t

Query: Input CC1(C)CN(C2CCCC2)C(=O)C1Oc1ccc(C#N)c(C(F)(F)F)c1 (stereo not shown) ; condition: IC50 strictly below 0.4 µM. Does it hold?
Response: t

The reported numbers originate from patent US7674819B2.
